Target: T1, human TREM2 (human, UniProt Q9NZC2 19-174, limits assumed)
T1 sequence: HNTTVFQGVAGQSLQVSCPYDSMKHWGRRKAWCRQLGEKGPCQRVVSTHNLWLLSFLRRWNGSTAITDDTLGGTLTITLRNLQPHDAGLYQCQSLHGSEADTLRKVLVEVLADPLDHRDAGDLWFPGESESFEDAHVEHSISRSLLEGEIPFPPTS
Assay: yeast-displayed Fab FACS, 1st screen 10 nM
Readings of binding signal fold over 6E7 parental for the listed binders
Answer in fold, number only, no unit symbol.

Binder	binding signal fold over 6E7 parental [fold]
V24 (Fab, V domains shown) VH: EVQLVQSGAEVKKPGESLKISCKGSGYSFTSYWIAWVRQMPGKGLEWMGIIYPGDSDVRYSPSFQGQVTISADKSISTAYLQWSSLKASDTAMYFCARSRTFYYDSSDYFDYWGQGTLVTVSS VL: DIQMTQSPSSVSASVGDRVTITCRASQGISSWLAWYQQKPGKAPKLLIYAASSLQKGVPSRFSGSGSGTDFTLTISSLQPEDFATYFCQQADSFPHTFGQGTKLEIK	2.64
V16 (Fab, V domains shown) VH: EVQLVQSGAEVKKPGESLKISCKGSGYSMTSYWIAWVRQMPGKGLEWMGIIYPGDGDTRYSPSFQGQVTISADKSISTAYLQWSSLKASDTAMYFCARSRTFYYDSSDYFDYWGQGTLVTVSS VL: DIQMTQSPSSVSASVGDRVTITCRASQGISSWLAWYQQKPGKAPKLLIYAASNLQNGVPSRFSGSGSGTDFTLTISSLQPEDFATYFCQQADSFPRTFGQGTKLEIK	4.01
V76 (Fab, V domains shown) VH: EVQLVQSGAEVKKPGESLKISCKGSGYSFGSYWIAWVRQMPGKGLEWMGIIYPGDSDTRYSPEFQGQVTISADKSISTAYLQWSSLKASDTAMYFCARQRTFYYDSSDYSDYWGQGTLVTVSS VL: DIQMTQSPSSVSASVGDRVTITCRASQGISSWLAWYQQKPGKAPKLLIYAASSLQKGVPSRFSGSGSGRDFTLTISSLQPEDFATYFCQQADSFPRTFGQGTKLEIK	4.57
V36 (Fab, V domains shown) VH: EVQLVQSGAEVKKPGESLKISCKGSGYSFTSYWLAWVRQMPGKGLEWMGIIYPGDSDTRYSPSFQGQVTISADKSISTAYLQWSSLKASDTAMYFCARSRTFYYDSSDYFDYWGQGTLVTVSS VL: DIQMTQSPSSVSASVGDRVTITCRASQGISSWLAWYQQKPGKAPKLLIYAASSRQNGVPSRFSGSGSGTDFTLTISSLQPEDFATYFCQQADSYPRTFGQGTKLEIK	3.38

// next entry
Q: Let me know recorded binding signal fold over 6E7 parental for V15 (Fab, V domains shown) VH: EVQLVQSGAEVKKPGESLKISCKGSGYSFASYWIAWVRQMPGKGLEWMGTIYPGDSDTRYSPSFQGQVTISADKSISTAYLQWSSLKASDTAMYFCARSRTFYYDSSDYFDYWGQGTLVTVSS VL: DIQMTQSPSSVSASVGDRVTITCRASQGISSWLAWYQQKPGKAPKLLIYAASWLQNGVPSRFSGSGSGTDFTLTISSLQPEDFATYFCQQADSYPRTFGQGTKLEIK , thanks.
Result: 5.23
